# reported growth; entries follow
System: RPMI-8226 leukemia
Experiment: NCI-60 one-dose screen, 48 h (100 = growth as untreated, 0 = no growth, -100 = all killed)
Conditions: 10 µM unless noted
About 83,000 compounds went through this panel and 20% of them were active in at least one assay; those are over-represented in the sample as a whole.
The answer is to be given in %; state only the numeric part.

CC1(C)N(Nc2ccccc2)C(=O)C2CCCN21 (stereo unspecified); 13.7
C[C@]12CCc3sc(Nc4ccc(F)cc4)nc3C1=CC[C@@H]1[C@@H]2CC[C@]2(C)C(=O)CC[C@@H]12; 2.21
N#CCN(CC#N)[N+](=O)[O-]; 97.2
C/C(=C\c1ccn(-c2ccc(N)c(C(F)(F)F)c2)n1)[C@@H]1C[C@@H]2O[C@]2(C)CCC[C@H](C)[C@H](O)[C@@H](C)C(=O)C(C)(C)[C@@H](O)CC(=O)O1; 9.58
C/C=C(/C)C(=O)O[C@H]1CC[C@@]2(C)[C@@H]3CC[C@H]4[C@]5(O)C[C@H](O)[C@@]6(O)[C@@H](CN7C[C@@H](C)CC[C@H]7[C@@]6(C)O)[C@]5(O)C[C@@]42O[C@@]13O; 113
CN1CCc2cc3c(cc2C1O)OCO3 (stereo unspecified); 94.4
O=CC1(c2ccccc2)CCN(Cc2ccccc2)CC1; 102
O=NN1CCCCC1; 114
Cc1ccc(C(=O)O[C@H](C(=O)O)[C@H](OC(=O)c2ccc(C)cc2)C(=O)O)cc1; 106
COc1ccc(C(C#N)C(C)=O)cc1 (stereo unspecified); 101

Lab note: measured growth of N#CC(N)c1ccccc1 (stereo unspecified) was 99

Lab note: measured growth of `COc1ccc2c(c1)c(-c1nc(-c3cn(C)c4ncccc34)cs1)cn2CCCCN1CCOCC1` was -18.1

Lab note: measured growth of `Cc1cc(NC(=O)NCCCOc2ccc(N3C(N)=NC(N)=NC3(C)C)cc2Cl)ccc1S(=O)(=O)F` was 36.6

Lab note: measured growth of `O=C(CBr)OCCOC(=O)CBr` was 33.8

Lab note: measured growth of `CC[C@H](C)[C@H](NC(=O)[C@H]1CCCCN1C)C(=O)N(C)[C@H](C[C@@H](OC(C)=O)c1cccc(C(=O)N[C@@H](Cc2ccccc2)C[C@H](C)C(=O)OC)n1)C(C)C` was 20
